# assay.system: KRAS G12S (Homo sapiens (Human), UniProt P01116+P62937, G12S)
# Sequence (P01116-2 other isoform, or with tags, fused parts or gaps G12S): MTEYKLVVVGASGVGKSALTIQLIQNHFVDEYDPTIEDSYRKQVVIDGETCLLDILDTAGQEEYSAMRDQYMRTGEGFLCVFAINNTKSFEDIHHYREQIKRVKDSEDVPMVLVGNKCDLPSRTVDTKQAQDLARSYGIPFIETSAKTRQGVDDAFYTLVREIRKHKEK
# Sequence (P62937 whole entry): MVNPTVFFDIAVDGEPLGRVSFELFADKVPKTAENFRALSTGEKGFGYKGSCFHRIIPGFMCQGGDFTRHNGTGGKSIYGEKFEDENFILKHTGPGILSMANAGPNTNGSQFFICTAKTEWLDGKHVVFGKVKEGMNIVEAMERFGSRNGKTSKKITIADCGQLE
# procedure.details: Ras-Raf (BRAF RBD) disruption / FRET / MOA assay, KRAS G12S
# Format: biochemical
# test.settings: Ras-Raf disruption/FRET/MOA assay; class symbols; read-out: KRAS G12S FRET data IC50
parameter: IC50

{"columns": ["compound", "parameter", "result"],
 "data": [
  ["CCn1c(-c2cccnc2[C@H](C)OC)c2c3cc(ccc31)-c1csc(n1)C[C@H](NC(=O)[C@H](C(C)C)N(C)C(=O)N1C[C@@H]3CN(C(=O)C#CC(C)(C)N(C)C)CC[C@@H]31)C(=O)N1CCC[C@H](N1)C(=O)OCC(C)(C)C2 (atropisomer, axis not shown)", "IC50", "0.1 to 1 µM"],
  ["CCn1c(-c2cncnc2)c2c3cc(ccc31)-c1cc(O)cc(c1)C[C@H](NC(=O)[C@H](C(C)C)N(C)C(=O)[C@H]1CCN(C(=O)C#CCN3CCOCC3)C1)C(=O)N1CCC[C@H](N1)C(=O)OCC(C)(C)C2", "IC50", "1 to 10 µM"],
  ["C=CC(=O)N1CCCN(C(=O)N(C)[C@H](C(=O)N[C@H]2Cc3nc(cs3)-c3ccc4c(c3)c(c(-c3cccnc3[C@H](C)OC)n4CC)CC(C)(C)COC(=O)[C@@H]3CCCN(N3)C2=O)C(C)C)CC1 (atropisomer, axis not shown)", "IC50", "0.1 to 1 µM"],
  ["C=CC(=O)N1CC[C@]2(CCN([C@H](C(=O)N[C@H]3Cc4cccc(c4)-c4ccc5c(c4)c(c(-c4cccnc4[C@H](C)OC)n5CC)CC(C)(C)COC(=O)[C@@H]4CCCN(N4)C3=O)C(C)C)C2=O)C1 (atropisomer, axis not shown)", "IC50", "0.1 to 1 µM"],
  ["CCn1c(-c2cccnc2[C@H](C)OC)c2c3cc(ccc31)-c1cc(cc(C(F)F)c1)C[C@H](NC(=O)[C@H](C(C)C)N(C)C(=O)[C@H]1CCN(C(=O)C#CC(C)(C)N3CCC3)C1)C(=O)N1CCC[C@H](N1)C(=O)OCC(C)(C)C2 (atropisomer, axis not shown)", "IC50", "1 to 10 µM"],
  ["CCn1c(-c2cccnc2[C@H](C)OC)c2c3cc(ccc31)-c1cc(O)cc(c1)C[C@H](NC(=O)[C@H](C(C)C)N(C)C(=O)[C@H]1CCN(C(=O)C#CCOC)C1)C(=O)N1CCC[C@H](N1)C(=O)OCC(C)(C)C2", "IC50", "0.01 to 0.1 µM"],
  ["C=CC(=O)N1CCO[C@@H]2CCN(C(=O)N(C)[C@H](C(=O)N[C@H]3Cc4nc(cs4)-c4ccc5c(c4)c(c(-c4cccnc4[C@H](C)OC)n5CC)CC(C)(C)COC(=O)[C@@H]4CCCN(N4)C3=O)C(C)C)C[C@@H]21 (atropisomer, axis not shown)", "IC50", "0.1 to 1 µM"]
]}

Ask: Given C=CC(=O)N1CC2(C1)OCCN2C(=O)N(C)[C@H](C(=O)N[C@H]1Cc2nc(cs2)-c2ccc3c(c2)c(c(-c2cccnc2[C@H](C)OC)n3CC)CC(C)(C)COC(=O)[C@@H]2CCCN(N2)C1=O)C(C)C (atropisomer, axis not shown) , report its IC50 on KRAS G12S (Homo sapiens (Human), UniProt P01116+P62937, G12S).
Result: 0.1 to 1 µM
